experimental-details: yeast display, Sf9 membrane polyspecificity reagent, FACS + sequencing; frameworks hold sequencing errors
endpoint-label: polyreactivity (PSR sort gate)

INSERT INTO measurements (residue_sequence, result_value) VALUES
  ('QVQLVESGGVLVQAGGSLRLSCAASGRTFYSYAMGWYRQAPGNERELVAAITSSGGSTYYADSVKGRFTISRDNAKNTVYLQMNRLKPEDTAVYYCAAPRGRHFDYWGQGTQVTVSS', 'high polyreactivity'),
  ('QVQLVESGGGLVQAGGSLRLSCAASGYTRFYAMGWYRQAPGTERELVAAISSSGGTTYYADSVKGRFTISRDNAKNTVYLQMNSLKPEDTAVYYCAKYVSYSRTLYDYWGQGTQVTVSS', 'low polyreactivity'),
  ('QVHLQESGGGLVKAGGSLRLSCAASGTISPLPAMCWYRQAPGKEREFVAGIDTGAITNYADSVKGRFTISRDNAKNTVYLQMNSLKPEDTAVYYCAFFPAAYDYYERYYTYWGQGTQVTVSC', 'low polyreactivity'),
  ('QVQLVESGGGLVQAGGSLRLSCAASGRTFYKYTMGWYRQAPGKERELVAAITTSGGGTYYADSVKGRFTISRDNAKNTVYIQMNSLKPEDTAVYYCAARYRELRTEYYYWGQGTQVTVSA', 'high polyreactivity'),
  ('QVQLVESGGGLVQAGGSLRLSCAASGFTFYTYMGWYRQAPGKERELVAAISWSGDSTYYADSVKGRFTISRDNAKNTVYLQMKSLKPEDTAVYYCAARRVFYNGYYVNVGSFYYWGQGTQVTVSS', 'low polyreactivity'),
  ('QVQLVESGGGLVQAGGSLRLSCAASGYTFLPYALGWYRQAPGKERELVAAINWGGGSTYYADSVKGRFTISRDNAKNTVYLQMNSLKPEDTAVYYCNAKRPFGGLDYWGQGSQVTVSS', 'low polyreactivity'),
  ('QVQLVESGGGLVQAGGSLRLSCAASGRTFYRYAMGWYRQAPGKERELVAAISGSGTSTSYADSVKGRFTISRDNAKNTVYLQMNSLKPEDTAVYYCAATYYVYYYSRYYYWGQGTQVTVSS', 'high polyreactivity'),
  ('QVQLVESGGGLVQAGGSLRLSCAASGYIFEYYAMGWYRQAPGKERELVAAISVGGGSTYYADSVKGRFTISRDNAKNTVYLQMNSLKPEDTAVYYCAAVQLYQKHQITYVAHEYWGQGTQVTVSS', 'low polyreactivity'),
  ('QVQLVESAGGLVQAGGSLRVICAASASTSVHNAMGWYRQAPGKERELVAAITSDGSTNYADSVKGRFTISRDNEKNTVYLLMYSLEPEDTAFYYCAALGWTYYVGYVSYSYGYWGQGTQVTVSS', 'low polyreactivity'),
  ('QVQLVESGGGLVQAGGSLRLICADSGSTFTGNAMGWYRQAPGKERELVAAISRSGGRTYYADSVKGRFTISRDNAKNTVYLQMNSLKPEDTAVYYCNAVRNRGQRTAFDYWGQGTQVTVSS', 'high polyreactivity');

Entry under test: QVQLVESAGGLVQAGGSLRLSCAASGFIFPRYAMGWYRPAPGKERELVAAISSSGGSTYYADSVKGRFTISRDNAKNTVYLQMNSLKPEDTAVYYCAARYQSDYWRYYYWGQGTQVTVSS . Its polyreactivity (PSR sort gate) was high polyreactivity
